Source: patent US20130012466A1

Overview of recorded pIC50 for various compounds
# Tested on: mouse mammary normal epithelial control cell line
# assay.remarks: Cytotoxicity assay, normal control cell line
# study.conditions: read-out: Cytotoxicity IC50, NmuMG, calcein, calcein AM readout, % error in parentheses
// returns pIC50 (minus log10 of molar concentration), number only

[ask] Param readout= pIC50; system= mouse mammary normal epithelial control cell line; entry= COc1cc2c(c(OC)c1OC)-c1ccc(OC)c(=O)cc1[C@@H](NC(=O)CN(OC)[C@@H]1OC[C@@H](O)[C@H](O)[C@@H]1O)CC2 [Col1, D-lyxoside] ; returns value.
[reply] 5.19

[ask] Query for mouse mammary normal epithelial control cell line: what pIC50 does the record show for COc1cc2c(c(OC)c1OC)-c1ccc(OC)c(=O)cc1[C@@H](NC(=O)CN(OC)[C@@H]1O[C@H](CO)[C@H](O)[C@H](O)[C@H]1NC(C)=O)CC2 [Col28, N-acetyl-D-galactosaminoside] ?
[reply] 5.02

[ask] GET /values?readout=pIC50&system=mouse mammary normal epithelial control cell line&item= CCCCCCCCCC(=O)N[C@@H]1[C@@H](O)[C@H](N(CC(=O)N[C@H]2CCc3cc(OC)c(OC)c(OC)c3-c3ccc(OC)c(=O)cc32)OC)O[C@H](CO)[C@H]1O [Col60, 3-deoxy-3-N-decanoyl-D-glucosaminoside]
[reply] 5.22

[ask] # value lookup — system mouse mammary normal epithelial control cell line, readout pIC50, item COc1cc2c(c(OC)c1OC)-c1ccc(OC)c(=O)cc1[C@@H](NC(=O)CN(OC)[C@@H]1O[C@H](C(=O)O)[C@H](O)[C@H](O)[C@H]1O)CC2 [Col18, D-Galacturonoside]
[reply] 5.58

[ask] Can you look up pIC50 on mouse mammary normal epithelial control cell line for COc1cc2c(c(OC)c1OC)-c1ccc(OC)c(=O)cc1C(NC(=O)CN(OC)C1CC(O)C(O)C(C)O1)CC2 [Col65, D-Digitoxoside] ?
[reply] 5.48

====

# Test system: MCF7
# assay.remarks: Cytotoxicity assay (cell titer-glo and calcein AM), MCF7
# study.conditions: read-out: Cytotoxicity IC50, MCF7, calcein, calcein AM readout, % error in parentheses
recorded.endpoint: IC50 (nM)
The figure you give is taken to be in nM; do not add the unit.

COc1cc2c(c(OC)c1OC)-c1ccc(OC)c(=O)cc1C(NC(=O)CN(OC)C1OC(C)C(O)C(O)C1O)CC2 [Col37, L-rhamnoside] = 1560
COc1cc2c(c(OC)c1OC)-c1ccc(OC)c(=O)cc1[C@@H](NC(=O)CN(OC)[C@@H]1OC[C@@H](O)[C@@H](O)[C@H]1O)CC2 [Col5, D-riboside] = 2880

[ask] Bench note: what IC50 did COc1cc2c(c(OC)c1OC)-c1ccc(OC)c(=O)cc1[C@@H](NC(=O)CN(OC)[C@@H]1O[C@H](CO)[C@@H](N=[N+]=[N-])[C@H](O)[C@H]1O)CC2 [Col44, 4-deoxy-4-azido-D-glucoside] show?
[reply] 676

====

A collection of compounds and their measured IC50
# Test system: NCI-H460
# assay.remarks: Cytotoxicity assay (cell titer-glo and calcein AM), NCI-H460
# study.conditions: read-out: Cytotoxicity IC50, NCI-H460, calcein; NCI-H460; calcein AM readout; % error in parentheses
Kindly provide the numeric value in µM only, without the unit symbol.

Example cases with answers are listed next.
COc1cc2c(c(OC)c1OC)-c1ccc(OC)c(=O)cc1[C@@H](NC(=O)CN(OC)[C@@H]1O[C@H](C(=O)O)[C@H](O)[C@H](O)[C@H]1O)CC2 [Col18, D-Galacturonoside] = 1.13
COc1cc2c(c(OC)c1OC)-c1ccc(OC)c(=O)cc1[C@@H](NC(=O)CN(OC)[C@@H]1O[C@H](CSC(C)=O)[C@H](O)[C@H](O)[C@H]1O)CC2 [Col68, 6-deoxy-6-thio-acyl-D-galactoside] = 3.12
COc1cc2c(c(OC)c1OC)-c1ccc(OC)c(=O)cc1C(NC(=O)CN(OC)C1OC(COCc3ccccc3)C(OCc3ccccc3)C1OCc1ccccc1)CC2 (stereo not shown) [Col53] = 0.071
COc1cc2c(c(OC)c1OC)-c1ccc(OC)c(=O)cc1[C@@H](NC(=O)CN(OC)[C@@H]1O[C@H](C)[C@@H](O)[C@H](O)[C@H]1O)CC2 [Col2, 6-deoxy-D-glucoside] = 5.42
COc1cc2c(c(OC)c1OC)-c1ccc(OC)c(=O)cc1C(NC(=O)CN(OC)C1OCC(O)C(O)C1O)CC2 [Col20, D-arabinoside] = 3.71
COc1cc2c(c(OC)c1OC)-c1ccc(OC)c(=O)cc1C(NC(=O)CN(OC)C1OCC(O)C(O)C1O)CC2 [Col17, L-xyloside] = 5.61
CCCCCCCCCC(=O)N[C@@H]1[C@@H](O)[C@H](N(CC(=O)N[C@H]2CCc3cc(OC)c(OC)c(OC)c3-c3ccc(OC)c(=O)cc32)OC)O[C@H](CO)[C@H]1O [Col60, 3-deoxy-3-N-decanoyl-D-glucosaminoside] = 5.88

Proceeding to the next compound to report its IC50.
[ask] IC50 lookup needed for COc1cc2c(c(OC)c1OC)-c1ccc(OC)c(=O)cc1C(NC(=O)CN(OC)C1OC(C)C(O)C(O)C1O)CC2 [Col37, L-rhamnoside] , thanks.
[reply] 6.7

====

# Test system: tubulin
# assay.remarks: In vitro tubulin polymerization assay (fluorescence-based)
# Format: biochemical
# study.conditions: tested in duplicate on at least two days
recorded.endpoint: effect on tubulin polymerization / microtubules

COc1cccc2c1C(=O)c1c(O)c3c(c(O)c1C2=O)C[C@@](O)(C(=O)CO)C[C@@H]3O[C@H]1C[C@H](N)[C@H](O)[C@H](C)O1 [doxorubicin, reference compound] = no apparent effect
COc1cc2c(c(OC)c1OC)-c1ccc(OC)c(=O)cc1C(NC(=O)CN(OC)C1CC(O)C(O)C(C)O1)CC2 [Col65, D-Digitoxoside] = no apparent effect

====

# System: A549
# assay.remarks: Cytotoxicity assay (cell titer-glo and calcein AM), A549
# study.conditions: read-out: Cytotoxicity IC50, A549, calcein; A549; calcein AM readout; % error in parentheses
In this section we review reported IC50 values for a set of compounds.
Answer with a number only, understood to be in µM.

Worked set:
COc1cc2c(c(OC)c1OC)-c1ccc(OC)c(=O)cc1[C@@H](NC(=O)CN(OC)[C@@H]1O[C@H](CSC(C)=O)[C@H](O)[C@H](O)[C@H]1O)CC2 [Col68, 6-deoxy-6-thio-acyl-D-galactoside] = 7.67
COc1cc2c(c(OC)c1OC)-c1ccc(OC)c(=O)cc1[C@@H](NC(=O)CN(OC)[C@H]1C[C@@H](O)[C@H](O)[C@@H](CO)O1)CC2 [Col16, 2-deoxy-D-glucoside] = 1.68
COc1cc2c(c(OC)c1OC)-c1ccc(OC)c(=O)cc1[C@@H](NC(=O)CN(OC)[C@@H]1O[C@H](CO)[C@@H](O)[C@H](F)[C@H]1O)CC2 [Col33, 3-fluoro-3-deoxy-D-glucoside] = 1.87
COc1cc2c(c(OC)c1OC)-c1ccc(OC)c(=O)cc1C(NC(=O)CN(OC)C1OCC(O)C(O)C1O)CC2 [Col22, L-riboside] = 9.44
COc1cc2c(c(OC)c1OC)-c1ccc(OC)c(=O)cc1[C@@H](NC(=O)CN(OC)[C@@H]1O[C@H](CO)[C@@H](O)[C@H](O)[C@H]1F)CC2 [Col34, 2-fluoro-2-deoxy-D-glucoside] = 0.778
COc1cc2c(c(OC)c1OC)-c1ccc(OC)c(=O)cc1C(NC(=O)CN(OC)C1OCC(O)C(O)C1O)CC2 [Col25, L-arabinoside] = 5.26
COc1cc2c(c(OC)c1OC)-c1ccc(OC)c(=O)cc1[C@@H](NC(=O)CN(OC)[C@@H]1O[C@H](CCl)[C@H](O)[C@H](O)[C@H]1O)CC2 [Col41, 6-deoxy-6-chloro-D-galactoside] = 1.07
COc1cc2c(c(OC)c1OC)-c1ccc(OC)c(=O)cc1[C@@H](NC(=O)CN(OC)[C@@H]1O[C@H](C(=O)O)[C@@H](O)[C@H](O)[C@H]1O)CC2 [Col15, D-glucuronoside] = 3.92

[ask] Record lookup: for A549, what IC50 belongs to COc1cc2c(c(OC)c1OC)-c1ccc(OC)c(=O)cc1C(NC(=O)CN(OC)C1CC(O)C(O)C(C)O1)CC2 [Col65, D-Digitoxoside] ?
[reply] 2.3

[ask] Observed IC50 on A549 for COc1cc2c(c(OC)c1OC)-c1ccc(OC)c(=O)cc1[C@@H](NC(=O)CN(OC)[C@@H]1O[C@H](CBr)[C@H](O)[C@H](O)[C@H]1O)CC2 [Col42, 6-deoxy-6-bromo-D-galactoside] , please.
[reply] 2.64

[ask] Can you look up IC50 on A549 for COc1cc2c(c(OC)c1OC)-c1ccc(OC)c(=O)cc1C(NC(=O)CN(OC)C1OCC(O)C(O)C1O)CC2 [Col7, L-lyxoside] ?
[reply] 9.76

[ask] Checklist item: IC50 tested on A549, entry COc1cc2c(c(OC)c1OC)-c1ccc(OC)c(=O)cc1C(NC(=O)CN(OC)C1OC(C)C(O)C(O)C1O)CC2 [Col37, L-rhamnoside] , value?
[reply] 7.28

[ask] What measured IC50 is associated with COc1cc2c(c(OC)c1OC)-c1ccc(OC)c(=O)cc1[C@@H](NC(=O)CN(OC)[C@@H]1OC[C@@H](O)[C@H](O)[C@@H]1O)CC2 [Col1, D-lyxoside] on A549?
[reply] 1.21

[ask] Give the reported IC50 for COc1cc2c(c(OC)c1OC)-c1ccc(OC)c(=O)cc1[C@@H](NC(=O)CN(OC)[C@@H]1O[C@H](C(=O)O)[C@H](O)[C@H](O)[C@H]1O)CC2 [Col18, D-Galacturonoside] (system: A549).
[reply] 1.07
